tested on: hIL-17 mRNA; assay: Inhibition of hIL-17 mRNA transcription in OKT3-stimulated peripheral blood mononuclear cells; format: cell-based; conditions: PBMC, human peripheral blood mononuclear cells, OKT3 antibody, 6 h, read-out: IL-17 activity
pIC50: −log10 of the molar value.
Catalogue of pIC50 values
measured-quantity: pIC50

In [3]: df
Out[3]:
                                    compound       reading
 0   Cc1noc(C)c1-c1cc(N)c2c(c1)ncn2Cc1ccccc1  5.52 to 6.52
 1   Cc1noc(C)c1-c1cc(N)c2ncn(Cc3ccccc3)c2c1        ≥ 6.52
 2  Cc1noc(C)c1-c1cnc2[nH]c(=O)n(Cc3ccc(Cl)cc3)c2c1  5.52 to 6.52
 3  Cc1noc(C)c1-c1cc(N)c2nc(C)n(Cc3ccccc3)c2c1        ≥ 6.52
 4   Cc1noc(C)c1-c1cnc2nc(C)n(Cc3ccccc3)c2c1  5.52 to 6.52
 5  Cc1noc(C)c1-c1cnc2[nH]c(=O)n(Cc3cccs3)c2c1  5.52 to 6.52
 6      Cc1noc(C)c1-c1cnc2ncn(Cc3ccccc3)c2c1  5.52 to 6.52
 7  Cc1noc(C)c1-c1cnc2ncn(C(C)c3ccccc3)c2c1 (centres unmarked)  5.52 to 6.52
 8  CCNc1nc2c([N+](=O)[O-])cc(-c3c(C)noc3C)cc2n1Cc1ccccc1  5.52 to 6.52
 9  CC(=O)Nc1cc(-c2c(C)noc2C)cc2c1nc(C)n2Cc1ccccc1        ≥ 6.52
10   Cc1noc(C)c1-c1cnc2cnn(Cc3ccc(F)cc3)c2c1  5.52 to 6.52

* * *

tested on: hIL-6 mRNA; experiment: Inhibition of hIL-6 mRNA transcription in LPS-stimulated U937 cells; type: cell-based; conditions: Homo sapiens, U-937; PMA-differentiated U937 cells, 1 h pretreatment, 1 ug/mL LPS stimulation, 3 h; read-out: IL-6 activity (Inhibition of hIL-6 mRNA Transcription)
measured-quantity: IC50

>>> df
                      smiles_representation      reading
0  Cc1noc(C)c1-c1ccc2ncc(=O)n(Cc3ccccc3)c2c1  0.3 to 3 µM
1      Cc1noc(C)c1-c1cnc2ncn(Cc3ccccc3)c2c1  0.3 to 3 µM
2      Cc1noc(C)c1-c1ccc2ncn(Cc3ccccc3)c2n1  0.3 to 3 µM
3  COc1cc(-c2c(C)noc2C)cc2c1nc(C)n2Cc1ccccc1  0.3 to 3 µM
4  Cc1noc(C)c1-c1cnc2ncn(Cc3ccc(C(F)(F)F)cc3)c2c1   3 to 30 µM

* * *

Catalogue of IC50 values
Target: Brd4 bromodomain 1 (BRD4(1)) (Homo sapiens, UniProt O60885)
Assay: Inhibition of tetra-acetylated histone H4 binding to Brd4 bromodomain 1 (TR-FRET)
Settings: tetra-acetylated histone H4 peptide, first bromodomain of Brd4
Method: Proteins were cloned and overexpressed with a N-terminal 6× His tag, then purified by nickel affinity followed by size exclusion chromatography. […] Binding of tetra-acetylated histone H4 and BET bromodomains was confirmed by a Time Resolved Fluorescence Resonance Energy Transfer (TR-FRET) method. […] After a 2-h incubation at room temperature, the fluorescence by FRET was measured at 665 and 620 nm by a SynergyH4 plate reader (Biotek). […] IC50 values were determined from a dose response curve.
measured-quantity: IC50

                                    compound           reading
 0   Cc1noc(C)c1Nc1cnc2nc(C)n(Cc3ccccc3)c2c1          ≤ 300 nM
 1  Cc1noc(C)c1-c1cc(N2CCC2=O)c2nc(C)n(Cc3ccccc3)c2c1          ≤ 300 nM
 2  Cc1noc(C)c1-c1cnc2nc(N3CCOCC3)n(CC3CCC3)c2c1          ≤ 300 nM
 3  Cc1noc(C)c1-c1cnc2nc(NC3CCOCC3)n(Cc3ccccc3)c2c1          ≤ 300 nM
 4  CCOc1nc2c(N)cc(-c3c(C)noc3C)cc2n1Cc1ccccc1          ≤ 300 nM
 5  Cc1nn(C)c(C)c1-c1cc(N)c2nc(C)n(Cc3ccccc3)c2c1  3000 to 30000 nM
 6  Cc1noc(C)c1-c1cc(Br)c2c(c1)nc(C)n2CCOc1ccccc1    300 to 3000 nM
 7  CC(=O)Oc1nc2ncn(Cc3ccc(F)cc3)c2cc1-c1c(C)noc1C    300 to 3000 nM
 8  Cc1noc(C)c1-c1cc(N)c2nc(NCc3ccccc3)n(Cc3ccccc3)c2c1          ≤ 300 nM
 9   Cc1noc(C)c1-c1nc(N)c2ncn(Cc3ccccc3)c2n1    300 to 3000 nM
10  Cc1noc(C)c1-c1cc([N+](=O)[O-])c2[nH]c(=O)n(C(C)c3ccccc3)c2c1 (centres unmarked)          ≤ 300 nM
